- Test system: eye (cornea, iris, conjunctiva)
- PROTOCOL_SUMMARY: primary eye irritation (Draize) in rabbits
- Assay type: in vivo, white native male rabbits
- MEASUREMENT_CONTEXT: 2.4% soln; 96 hours; average of three rabbits
READOUT_KIND: Primary irritation score, Total
Provide a numeric answer; units are not to be included.

Below, each entry is followed by its recorded Primary irritation score, Total result.
{"COMPOUND": "CCCCCCCCCCCC(=O)OCC(O)COC(=O)[C@@H]1CCC(=O)N1 (stereo partly drawn) [Compound (172)]", "STUDY_SYSTEM": "eye (cornea, iris, conjunctiva)", "Primary irritation score, Total": 0}
{"COMPOUND": "CCCCCCCCC1(CCCCCCCC)OCC(COC(=O)C2CCC(=O)N2)O1 (stereo not drawn) [Compound (214)]", "STUDY_SYSTEM": "eye (cornea, iris, conjunctiva)", "Primary irritation score, Total": 0}
{"COMPOUND": "CCCCCCCCCCCCOS(=O)(=O)[O-].[Na+] [Sodium Laurylsulfate, sodium laurylsulfate, reference compound]", "STUDY_SYSTEM": "eye (cornea, iris, conjunctiva)", "Primary irritation score, Total": 2.0}
{"COMPOUND": "CCC=CCCCCCCCCOCC(O)COC(=O)[C@@H]1CCC(=O)N1 (stereo partly drawn) [Compound (134)]", "STUDY_SYSTEM": "eye (cornea, iris, conjunctiva)", "Primary irritation score, Total": 0}
{"COMPOUND": "CCCCCCCC/C=C\\CCCCCCCC(=O)OCC(O)COC(=O)[C@@H]1CCC(=O)N1 (stereo partly drawn) [Compound (168)]", "STUDY_SYSTEM": "eye (cornea, iris, conjunctiva)", "Primary irritation score, Total": 0}

Now consider the entry below.
Query: Primary irritation score, Total; subject: CCCCCCCC(=O)OCC(COC(=O)[C@@H]1CCC(=O)N1)OC(=O)CCCCCCC (stereo partly drawn) [Compound (162)]
0

---

Here, each record is paired with measured Primary irritation score, Conjunctiva data.
- System: eye (cornea, iris, conjunctiva)
- PROTOCOL_SUMMARY: primary eye irritation (Draize) in rabbits
- Type: in vivo, white native male rabbits
- MEASUREMENT_CONTEXT: 2.4% soln; 96 hours; average of three rabbits

{"COMPOUND": "CCCCCCCCCCCC(=O)OCC(O)COC(=O)[C@@H]1CCC(=O)N1 (stereo partly drawn)", "READOUT_KIND": "Primary irritation score, Conjunctiva", "RESULT": 0}
{"COMPOUND": "CCCCCCCCC1(CCCCCCCC)OCC(COC(=O)C2CCC(=O)N2)O1 (stereo not drawn)", "READOUT_KIND": "Primary irritation score, Conjunctiva", "RESULT": 0}
{"COMPOUND": "CCCCCCCC(=O)OCC(COC(=O)[C@@H]1CCC(=O)N1)OC(=O)CCCCCCC (stereo partly drawn)", "READOUT_KIND": "Primary irritation score, Conjunctiva", "RESULT": 0}
{"COMPOUND": "CCCCCCCC/C=C\\CCCCCCCC(=O)OCC(O)COC(=O)[C@@H]1CCC(=O)N1 (stereo partly drawn)", "READOUT_KIND": "Primary irritation score, Conjunctiva", "RESULT": 0}
{"COMPOUND": "CCCCCCCCCCCCOS(=O)(=O)[O-].[Na+] [Sodium Laurylsulfate, sodium laurylsulfate, reference compound]", "READOUT_KIND": "Primary irritation score, Conjunctiva", "RESULT": 2.0}

Now consider the entry below.
Query: Primary irritation score, Conjunctiva; subject: CCC=CCCCCCCCCOCC(O)COC(=O)[C@@H]1CCC(=O)N1 (stereo partly drawn)
0

---

- Tested on: eye (cornea, iris, conjunctiva)
- PROTOCOL_SUMMARY: primary eye irritation (Draize) in rabbits
- Type: in vivo, white native male rabbits
- MEASUREMENT_CONTEXT: 2.4% soln; 6 hours; average of three rabbits
Here, each record is paired with measured Primary irritation score, Conjunctiva data.
Provide a numeric answer; units are not to be included.

Query: Primary irritation score, Conjunctiva; subject: CCCCCCCCC1(CCCCCCCC)OCC(COC(=O)C2CCC(=O)N2)O1 (stereo not drawn)
2.0

---

- Tested on: eye (cornea, iris, conjunctiva)
- PROTOCOL_SUMMARY: primary eye irritation (Draize) in rabbits
- Assay type: in vivo, white native male rabbits
- MEASUREMENT_CONTEXT: 2.4% soln; 1 hour; average of three rabbits
- Procedure: enhancers of this invention shown in Table 17 was applied dropwise to one eye of white native male rabbits (body weight 2.0 to 3.0 kg; 3 per group) which, it had been ascertained, were free from any trouble at the cornea, iris and conjunctiva. […] Thus, irritation of the absorption aid to the mucous membrane of the eyes were examined, and scores were calculated in accordance with the Draize's eye irritation evaluating method [Association of Foods, "Drugs and Cosmetics" (1957)]. […]
READOUT_KIND: Primary irritation score, Iris
Provide a numeric answer; units are not to be included.

{"COMPOUND": "CCCCCCCCCCCCOS(=O)(=O)[O-].[Na+] [Sodium Laurylsulfate, sodium laurylsulfate, reference compound]", "READOUT_KIND": "Primary irritation score, Iris", "MEASURED_NUMBER": 5.0}

Query: Primary irritation score, Iris; subject: CCCCCCCCCCCC(=O)OCC(O)COC(=O)[C@@H]1CCC(=O)N1 (stereo partly drawn)
0

Query: Primary irritation score, Iris; subject: CCCCCCCC/C=C\CCCCCCCC(=O)OCC(O)COC(=O)[C@@H]1CCC(=O)N1 (stereo partly drawn)
0

---

Here, each record is paired with measured Relative amount of the drug diffused data.
- PROTOCOL_SUMMARY: diffusion of drug through egg shell membrane in diffusion cell
- Format: in vitro ADME
- MEASUREMENT_CONTEXT: 30 minutes; drug 0.05% with compound (168) 1.0% on donor side; drug alone = 100; 37° C.
Provide a numeric answer; units are not to be included.

Below, each entry is followed by its recorded Relative amount of the drug diffused result.
{"CHEMICAL_SMILES": "O=C(O)c1ccccc1O", "Relative amount of the drug diffused": 203}
{"CHEMICAL_SMILES": "COc1ccc2c(c1)c(CC(=O)O)c(C)n2C(=O)c1ccc(Cl)cc1", "Relative amount of the drug diffused": 217}
{"CHEMICAL_SMILES": "CN1[C@@H]2C[C@@H](OC(=O)[C@H](CO)c3ccccc3)C[C@H]1[C@@H]1O[C@@H]12", "Relative amount of the drug diffused": 116}
{"CHEMICAL_SMILES": "CN(C)CCCN1c2ccccc2Sc2ccc(Cl)cc21", "Relative amount of the drug diffused": 133}

Query: Relative amount of the drug diffused; subject: "O=c1[nH]cc(F)c(=O)[nH]1"
208

---

- System: eye (cornea, iris, conjunctiva)
- PROTOCOL_SUMMARY: primary eye irritation (Draize) in rabbits
- Assay type: in vivo, white native male rabbits
- MEASUREMENT_CONTEXT: 2.4% soln; 24 hours; average of three rabbits
READOUT_KIND: Primary irritation score, Total
Provide a numeric answer; units are not to be included.

Below, each entry is followed by its recorded Primary irritation score, Total result.
{"MOLECULE": "CCCCCCCCCCCCOS(=O)(=O)[O-].[Na+] [Sodium Laurylsulfate, sodium laurylsulfate, reference compound]", "MEASURED_NUMBER": 8.0}
{"MOLECULE": "CCCCCCCC(=O)OCC(COC(=O)[C@@H]1CCC(=O)N1)OC(=O)CCCCCCC (stereo partly drawn)", "MEASURED_NUMBER": 0}
{"MOLECULE": "CCCCCCCCCCCC(=O)OCC(O)COC(=O)[C@@H]1CCC(=O)N1 (stereo partly drawn)", "MEASURED_NUMBER": 0}
{"MOLECULE": "CCCCCCCCC1(CCCCCCCC)OCC(COC(=O)C2CCC(=O)N2)O1 (stereo not drawn)", "MEASURED_NUMBER": 0}

Query: Primary irritation score, Total; subject: CCC=CCCCCCCCCOCC(O)COC(=O)[C@@H]1CCC(=O)N1 (stereo partly drawn)
0

Query: Primary irritation score, Total; subject: CCCCCCCC/C=C\CCCCCCCC(=O)OCC(O)COC(=O)[C@@H]1CCC(=O)N1 (stereo partly drawn)
0

---

Here, each record is paired with measured Primary irritation score, Cornea data.
- Tested on: eye (cornea, iris, conjunctiva)
- PROTOCOL_SUMMARY: primary eye irritation (Draize) in rabbits
- Format: in vivo, white native male rabbits
- MEASUREMENT_CONTEXT: 2.4% soln; 3 hours; average of three rabbits
Provide a numeric answer; units are not to be included.

{"COMPOUND": "CCCCCCCCCCCCOS(=O)(=O)[O-].[Na+] [Sodium Laurylsulfate, sodium laurylsulfate, reference compound]", "Primary irritation score, Cornea": 0}
{"COMPOUND": "CCCCCCCC(=O)OCC(COC(=O)[C@@H]1CCC(=O)N1)OC(=O)CCCCCCC (stereo partly drawn) [Compound (162)]", "Primary irritation score, Cornea": 0}
{"COMPOUND": "CCCCCCCCCCCC(=O)OCC(O)COC(=O)[C@@H]1CCC(=O)N1 (stereo partly drawn) [Compound (172)]", "Primary irritation score, Cornea": 0}

Query: Primary irritation score, Cornea; subject: CCCCCCCC/C=C\CCCCCCCC(=O)OCC(O)COC(=O)[C@@H]1CCC(=O)N1 (stereo partly drawn) [Compound (168)]
0

Query: Primary irritation score, Cornea; subject: CCC=CCCCCCCCCOCC(O)COC(=O)[C@@H]1CCC(=O)N1 (stereo partly drawn) [Compound (134)]
0

Query: Primary irritation score, Cornea; subject: CCCCCCCCC1(CCCCCCCC)OCC(COC(=O)C2CCC(=O)N2)O1 (stereo not drawn) [Compound (214)]
0

Where do these numbers come from? They come from patent US4746675A.
